TARGET SYSTEM: TLR8 (Homo sapiens, UniProt Q9NR97)
Construct: human HEK-Blue cells co-expressing a TLR7 or TLR8 gene
Sequence (Q9NR97 27-1041): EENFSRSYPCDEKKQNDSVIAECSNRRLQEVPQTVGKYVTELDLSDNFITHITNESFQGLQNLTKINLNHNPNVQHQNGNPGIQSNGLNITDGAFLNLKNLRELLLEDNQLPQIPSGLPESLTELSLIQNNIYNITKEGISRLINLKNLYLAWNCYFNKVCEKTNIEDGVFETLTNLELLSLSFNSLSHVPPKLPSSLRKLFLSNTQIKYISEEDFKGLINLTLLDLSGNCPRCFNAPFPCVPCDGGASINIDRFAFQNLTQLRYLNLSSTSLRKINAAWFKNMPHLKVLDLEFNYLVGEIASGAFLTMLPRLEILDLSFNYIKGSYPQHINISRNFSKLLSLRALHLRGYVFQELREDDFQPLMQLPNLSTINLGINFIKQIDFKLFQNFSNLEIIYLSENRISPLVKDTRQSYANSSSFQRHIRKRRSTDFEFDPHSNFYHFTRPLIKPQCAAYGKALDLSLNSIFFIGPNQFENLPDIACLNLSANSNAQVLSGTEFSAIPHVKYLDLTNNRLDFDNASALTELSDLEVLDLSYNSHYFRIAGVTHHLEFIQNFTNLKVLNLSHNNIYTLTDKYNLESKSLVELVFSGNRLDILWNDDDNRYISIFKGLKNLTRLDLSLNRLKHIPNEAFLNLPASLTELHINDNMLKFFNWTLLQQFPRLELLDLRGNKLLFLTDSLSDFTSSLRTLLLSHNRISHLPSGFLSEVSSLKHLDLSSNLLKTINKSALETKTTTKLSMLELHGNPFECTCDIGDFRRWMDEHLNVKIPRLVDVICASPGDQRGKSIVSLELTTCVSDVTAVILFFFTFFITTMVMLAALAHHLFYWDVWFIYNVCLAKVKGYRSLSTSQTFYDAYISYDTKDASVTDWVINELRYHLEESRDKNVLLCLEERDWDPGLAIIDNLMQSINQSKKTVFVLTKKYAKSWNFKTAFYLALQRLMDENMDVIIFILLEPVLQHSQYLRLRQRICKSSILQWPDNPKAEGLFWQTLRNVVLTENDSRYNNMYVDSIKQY
METHOD DESCRIPTION: In vitro human TLR8 binding reporter assay (HEK-Blue, NF-kB/AP1-inducible SEAP)
Type: cell-based
RECORDED CONDITIONS: activity range, read-out: TLR8 Agonist EC50
MEASURED ENDPOINT: EC50

Solved cases below.
CC(C)(Cn1cc2c(N)nc3cc(-c4ccn[nH]4)ccc3c2n1)C(=O)NCC1CCOCC1 ... > 100 µM
Nc1nc2cc(-c3cc[nH]n3)ccc2c2nn(CCC(=O)NCc3ccccn3)cc12 ... > 100 µM
CC(C)(O)CCn1cc2c(n1)c(N)nc1cc(-c3ccn[nH]3)ccc12 ... > 100 µM
CC(C(=O)N1CC(O)C1)n1cc2c(N)nc3cc(-c4ccn[nH]4)ccc3c2n1 (centres unmarked) ... > 100 µM
CC(C)(C(=O)NCC(F)F)n1cc2c(N)nc3cc(-c4cc[nH]n4)ccc3c2n1 ... > 100 µM
CC(C(=O)N(C)CCO)n1cc2c(N)nc3cc(-c4ccn[nH]4)ccc3c2n1 (centres unmarked) ... > 100 µM

With TLR8 (Homo sapiens, UniProt Q9NR97) as the test system, CC(=O)NC(C)Cn1cc2c(N)nc3cc(-n4cccn4)ccc3c2n1 (centres unmarked) showed EC50 of > 100 µM

With TLR8 (Homo sapiens, UniProt Q9NR97) as the test system, `Nc1nc2cc(-c3cc[nH]n3)ccc2c2c1cnn2CCN1CCOCC1` showed EC50 of > 100 µM

With TLR8 (Homo sapiens, UniProt Q9NR97) as the test system, CNC(=O)C(C)Cn1cc2c(N)nc3cc(-c4cc[nH]n4)ccc3c2n1 (centres unmarked) showed EC50 of > 100 µM

With TLR8 (Homo sapiens, UniProt Q9NR97) as the test system, `NC(=O)CCCn1cc2c(N)nc3cc(-c4cc[nH]n4)ccc3c2n1` showed EC50 of > 100 µM

With TLR8 (Homo sapiens, UniProt Q9NR97) as the test system, `Nc1nc2cc(-c3cc[nH]n3)ccc2c2[nH]c(CNCCO)cc12` showed EC50 of > 100 µM

With TLR8 (Homo sapiens, UniProt Q9NR97) as the test system, `Nc1nc2cc(-n3cccn3)ccc2c2[nH]c(CCCO)cc12` showed EC50 of > 100 µM

With TLR8 (Homo sapiens, UniProt Q9NR97) as the test system, `CCn1c(CCCO)cc2c(N)nc3cc(-c4ccn[nH]4)ccc3c21` showed EC50 of > 100 µM

With TLR8 (Homo sapiens, UniProt Q9NR97) as the test system, `CN(C)C(=O)CCn1cc2c(N)nc3cc(-c4cc[nH]n4)ccc3c2n1` showed EC50 of > 100 µM

With TLR8 (Homo sapiens, UniProt Q9NR97) as the test system, `Nc1nc2cc(-c3cc[nH]n3)ccc2c2nn(CCC(=O)N3CC(F)(F)C3)cc12` showed EC50 of > 100 µM

With TLR8 (Homo sapiens, UniProt Q9NR97) as the test system, CNC(=O)CC(C)n1cc2c(N)nc3cc(-c4cc[nH]n4)ccc3c2n1 (centres unmarked) showed EC50 of > 100 µM

Values were extracted from patent US12037344B2.
